# measurement.protocol: Times to onset, minimal and maximal, observed in the indexed observations. [column 'DELAI' in source]
# recorded.conditions: human
measured.endpoint: Hepatotoxicity (time to onset)

Some entries whose results are on file:
compound=CC1(C)S[C@@H]2[C@H](NC(=O)[C@H](N)c3ccc(O)cc3)C(=O)N2[C@H]1C(=O)O.O=C(O)[C@H]1/C(=C/CO)O[C@@H]2CC(=O)N21 test_result="< 1 day - 15 weeks"
compound="C(=C\\c1ccccc1)/CN1CCN(C(c2ccccc2)c2ccccc2)CC1 [CINNARIZINE]" test_result="3 weeks - 7 weeks"
compound="COc1c2occc2cc2ccc(=O)oc12 [METHOXSALEN]" test_result="2 hours - 5 months"

Q: Quick one: Hepatotoxicity (time to onset) of OCC(Br)(Br)Br [TRIBROMOETHANOL] ?
A: 1 day - 4 days

Q: Now try COCCCC/C(=N\OCCN)c1ccc(C(F)(F)F)cc1 [FLUVOXAMINE] .
A: 4 days - 4 months

Q: Now try Cn1c(=O)c2[nH]cnc2n(C)c1=O.O [THEOPHYLLINE] .
A: 4 days - 11 days

====

Property: Hepatotoxicity (severe hepatitis); scope: individual molecules
# recorded.conditions: human
Form: value (number only, do not type unit).

molecule=C=CC1=C(C(=O)O)N2C(=O)[C@@H](NC(=O)/C(=N\O)c3csc(N)n3)[C@H]2SC1 test_result=0
molecule="CCN(CC)CCCC(C)Nc1ccnc2cc(Cl)ccc12 (centres undefined)" test_result=0

Q: Quick one: Hepatotoxicity (severe hepatitis) of O=C(c1ccccc1)c1ccc2n1CCC2C(=O)O (centres undefined) ?
A: 0

Q: Now try CC[C@@H](CO)NC(=O)[C@@H]1C=C2c3cccc4c3c(cn4C)C[C@H]2N(C)C1 [METHYSERGIDE] .
A: 0

Q: Now try CCC1(c2ccccc2)C(=O)NC(=O)NC1=O .
A: 10

====

# measurement.protocol: Times to onset, minimal and maximal, observed in the indexed observations. [column 'DELAI' in source]
# recorded.conditions: human
Property: Hepatotoxicity (time to onset); scope: individual substances

Some entries whose results are on file:
substance=MUROMONAB-CD3 test_result="1 days"
substance=FILGRASTIM test_result="3 days - 8 days"
substance="DALTEPARIN SODIUM" test_result="4 days"
substance="BCG VACCINE" test_result="1 hour - 2 years"
substance="INTERFERON ALFA" test_result="8 days - 8 months"

Q: Quick one: Hepatotoxicity (time to onset) of SPIRAMYCIN ?
A: 1 day - 4 weeks

Q: Now try INFLIXIMAB .
A: 19 days - 19 months

====

# measurement.protocol: Times to onset, minimal and maximal, observed in the indexed observations. [column 'DELAI' in source]
# recorded.conditions: human
measured.endpoint: Hepatotoxicity (time to onset)

Some entries whose results are on file:
molecule="CCOC(=O)C1=C(C)NC(C)=C(C(=O)OC)C1c1cccc([N+](=O)[O-])c1 (configuration not stated)" measured_endpoint="Hepatotoxicity (time to onset)" test_result="3 weeks"
molecule=CC[C@H]1OC(=O)[C@H](C)[C@@H](O[C@H]2C[C@@](C)(OC)[C@@H](O)[C@H](C)O2)[C@H](C)[C@@H](O[C@@H]2O[C@H](C)C[C@H](N(C)C)[C@H]2O)[C@](C)(O)C[C@@H](C)/C(=N\OCOCCOC)[C@H](C)[C@@H](O)[C@]1(C)O measured_endpoint="Hepatotoxicity (time to onset)" test_result="4 days - 10 months"
molecule=CCOc1ccc2ccccc2c1C(=O)N[C@@H]1C(=O)N2[C@@H]1SC(C)(C)[C@@H]2C(=O)O measured_endpoint="Hepatotoxicity (time to onset)" test_result="1 day - 2 weeks"
molecule=CN(C)CCOc1ccc(/C(=C(/CCCl)c2ccccc2)c2ccccc2)cc1 measured_endpoint="Hepatotoxicity (time to onset)" test_result="3 months"
molecule=Clc1ccccc1CN1CCc2sccc2C1 measured_endpoint="Hepatotoxicity (time to onset)" test_result="1 week - 3 years"
molecule=CC(=O)Oc1ccccc1C(=O)O measured_endpoint="Hepatotoxicity (time to onset)" test_result="1 week - 5 years"

Q: Quick one: Hepatotoxicity (time to onset) of Nc1ccc(S(=O)(=O)c2ccc(N)cc2)cc1 ?
A: 1 week - 1.5 years

Q: Now try CN(C)CCCn1c2c(c3ccccc31)CCCCCC2 .
A: 2 weeks - 1 month

Q: Now try CCCC1O[C@@H]2C[C@H]3[C@@H]4CCC5=CC(=O)C=C[C@]5(C)[C@H]4[C@@H](O)C[C@]3(C)[C@]2(C(=O)CO)O1 (some centres not stated) [BUDESONIDE] .
A: 19 days

Q: Now try Cc1ncsc1CCCl .
A: 3 days - 40 days

# credit: ChEMBL document CHEMBL3137667
